# SYSTEM_NAME: Renin (Homo sapiens)
# Sequence (P00797 whole entry): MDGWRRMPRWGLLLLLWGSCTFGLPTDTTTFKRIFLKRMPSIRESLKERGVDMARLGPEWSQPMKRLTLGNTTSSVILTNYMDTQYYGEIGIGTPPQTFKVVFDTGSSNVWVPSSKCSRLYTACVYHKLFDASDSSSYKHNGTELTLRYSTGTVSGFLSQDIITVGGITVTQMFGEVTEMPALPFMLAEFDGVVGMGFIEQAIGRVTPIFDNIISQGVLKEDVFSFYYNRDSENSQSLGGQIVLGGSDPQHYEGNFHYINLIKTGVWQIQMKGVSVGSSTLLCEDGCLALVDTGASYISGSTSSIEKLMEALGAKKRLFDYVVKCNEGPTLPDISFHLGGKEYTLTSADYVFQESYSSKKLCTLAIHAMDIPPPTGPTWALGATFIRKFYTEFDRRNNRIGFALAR
# EXPERIMENT: In vitro potency against plasma renin at a pH of 6.0
# Type: cell-free
Lab note - cut at 8 nM for IC50: rule met if strictly below, rule not met if not.

# count of solved cases: 3
- COCOC1CCN(C(=O)[C@H](Cc2ccccc2)O[C@@H](C)C(=O)N[C@@H](CC2CCCCC2)[C@@H](O)[C@@H](O)CC(C)C)CC1: rule not met
- CCCC[C@H](N[C@@H](Cc1ccccc1)C(=O)N1CCC(OCOC)CC1)C(=O)N[C@@H](CC1CCCCC1)[C@@H](O)[C@@H](O)CC(C)C: rule met
- CCC[C@H](O[C@@H](Cc1ccccc1)C(=O)N1CCC(OCOC)CC1)C(=O)N[C@@H](CC1CCCCC1)[C@@H](O)[C@@H](O)CC(C)C: rule met

I'd appreciate it if you could check whether `CCCC[C@H](O[C@@H](Cc1ccccc1)C(=O)N1CCC(OCOC)CC1)C(=O)N[C@@H](CC1CCCCC1)[C@@H](O)[C@@H](O)CC(C)C` has IC50 smaller than 8 nM. rule met
